Provenance of the data: patent US11384078B2

Answer each item with its documented EC50.
system: L. donovani HU3 strain in mouse peritoneal macrophages; assay: Assay for inhibition of parasitemia of Leishmania donovani in mouse macrophages (SYBR Green nuclei count, high-content imaging); type: cell-based; conditions: Leishmania donovani, Peritoneal macrophage, L. donovani in mouse peritoneal macrophages; read-out: L. donovani in Mouse Macrophages EC50
Answers are plain numbers, in nM.

Answered cases to consult:
Cc1nc(C)c(C(=O)Nc2ccc(F)c(-n3cc4cc(N5CCCC5)cnc4n3)c2)o1 :: 18
O=C(Nc1ccc(F)c(-n2cc3cc(CC4CCC4)cnc3n2)c1)N1CCC1 :: 440
O=C(Nc1ccc(F)c(-n2cc3cc(N4CCCC4)cnc3n2)c1)N1CCC1 :: 4.1
O=C(Nc1ccc(F)c(-n2cc3cc(-c4cnn(C5CC5)c4)cnc3n2)c1)N1CC(F)C1 :: 50
Cc1nccnc1-c1cnc2nn(-c3cc(NC(=O)N4CC(F)C4)ccc3F)cc2c1 :: 2
C[C@@H]1CN(c2cnc3nn(-c4cc(NC(=O)N5CC(F)C5)ccc4F)cc3c2)C[C@H](C)O1 :: 22
O=C(Nc1ccc(F)c(-n2cc3cc(N4CC(C(F)(F)F)C4)cnc3n2)c1)N1CCC1 :: 3

Continue with the next compound.
State the recorded EC50 for this entry: O=C(Nc1ccc(F)c(-n2cc3cc(N4CC5(CCOCC5)C4)cnc3n2)c1)N1CC(F)C1
9

====

tested on: Trypanosoma cruzi amastigotes cultured in 3T3 fibroblast cells; test: Assay for growth inhibition of kinetoplastid parasite Trypanosoma cruzi (beta-galactosidase Tulahuen strain, CPRG readout); type: cell-based; conditions: Trypanosoma cruzi, Fibroblast, T. cruzi amastigotes in 3T3 fibroblast cells; read-out: Buckner infectious T. cruzi EC50
Observable: pEC50
Give bare numbers, as −log10 of the molar value.

Answered cases to consult:
O=C(Nc1ccnc(-n2cc3cc(Br)cnc3n2)c1)N1CC[C@@H](F)C1 [Compound 340] :: 7.21
O=C(Nc1ccc(F)c(-n2cc3cc(N4CCCC4)cnc3n2)c1)N1CC(F)(F)C1 [Compound 161] :: 8.01
O=C(Nc1ccc(F)c(-n2cc3cc(-c4ccccn4)cnc3n2)c1)c1cnccn1 [Compound 345] :: 8.40
CCNc1cnc2nn(-c3cc(NC(=O)N4CC(F)C4)ccc3F)cc2c1 [Compound 199] :: 7.62

Batch lookup, pEC50 per entry.
1. Cc1nc(C(=O)Nc2ccc(F)c(-n3cc4cc(C(C)C)cnc4n3)c2)c(C(F)(F)F)o1 [Compound 68]
2. Cn1cnc(-c2cnc3nn(-c4cc(NC(=O)N5CC(F)C5)ccc4F)cc3c2)c1 [Compound 301]
3. Cc1cccnc1-c1cnc2nn(-c3cc(NC(=O)c4oc(CO)nc4C)ccc3F)cc2c1 [Compound 334]

1. 6.80
2. 6.33
3. 5.84

Batch lookup, pEC50 per entry.
1. CCCC(C)c1cnc2nn(-c3cc(NC(=O)N4CC(F)(F)C4)ccc3F)cc2c1 (stereo not shown) [Compound 34]
2. CC(C)c1cnc2nn(-c3cc(NC(=O)c4nc(Cl)ccc4F)ccc3F)cc2c1 [Compound 86]
3. Cc1nc(C)c(C(=O)Nc2ccc(F)c(-n3cc4cc(Br)cnc4n3)c2)o1 [Compound 128]

[6.80, 7.85, 6.85]

====

test system: Trypanosoma cruzi amastigotes cultured in 3T3 fibroblast cells; experiment: Assay for growth inhibition of kinetoplastid parasite Trypanosoma cruzi (beta-galactosidase Tulahuen strain, CPRG readout); format: cell-based; conditions: Trypanosoma cruzi, Fibroblast, T. cruzi amastigotes in 3T3 fibroblast cells; read-out: Buckner infectious T. cruzi EC50
Flag rule - EC50 less than 60 nM flags 1; the remaining entries get 0.

Reference set (10 entries):
CC1(C)CN(c2cnc3nn(-c4cc(NC(=O)N5CC(F)C5)ccc4F)cc3c2)C1 :: 1
CC(C)c1cnc2nn(-c3cc(NC(=O)c4ccco4)ccc3F)cc2c1 :: 1
CC(C)(C)c1cnc2nn(-c3cc(NC(=O)N4CC(F)C4)ccc3F)cc2c1 :: 1
Cc1cc(C(=O)Nc2ccc(F)c(-n3cc4cc(C(C)C)cnc4n3)c2)oc1C :: 1
O=C(Nc1ccc(F)c(-n2cc3cc(C(F)(F)F)cnc3n2)c1)N1CC(F)(F)C1 :: 1
O=C(Nc1ccc(F)c(-n2cc3cc(N4CCC5(COC5)C4)cnc3n2)c1)N1CC(F)C1 :: 1
CC(C)c1cnc2nn(-c3cc(NC(=O)CC(C)(C)C)ccc3F)cc2c1 :: 0
CC(C)(C)OC(=O)N1CCCC1c1cnc2nn(-c3cc(NC(=O)N4CCC4)ccc3F)cc2c1 (centres unmarked) :: 1
O=C(Nc1ccc(F)c(-n2cc3cc(CC(F)(F)F)cnc3n2)c1)N1CC[C@@H](F)C1 :: 1
CCC(C)(C)c1cnc2nn(-c3cc(NC(=O)N4CC(F)(F)C4)ccc3F)cc2c1 :: 0

Confirm or reject: EC50 of O=C(Nc1ccc(F)c(-n2cc3cc(C4CC4)cnc3n2)c1)N1CC(F)C1 lies strictly below 60 nM
1

Confirm or reject: EC50 of O=C(Nc1ccc(F)c(-n2cc3cc(N4CCC5(CCOCC5)C4)cnc3n2)c1)N1CC(F)C1 lies strictly below 60 nM
1

Confirm or reject: EC50 of Cc1cn(-c2cnc3nn(-c4cc(NC(=O)N5CC(F)C5)ccc4F)cc3c2)cn1 lies strictly below 60 nM
0

Confirm or reject: EC50 of O=C(Nc1ccc(F)c(-n2cc3cc(N4CC(F)C4)cnc3n2)c1)C1CC1 lies strictly below 60 nM
0
